tested on: rat chronic carcinogenicity bioassay, TD50; experiment: DSSTox (CPDBAS) Carcinogenic Potency Database Summary Rat Bioassay Results; settings: TD50_Rat_Note: no positive results; TargetSites_Rat_Female: no positive results
Active and inactive are the calls of the source.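 The calls were made as follows: active = at least one rat sex group has a carcinogenic potency value and tumor site recorded; inconclusive = only rat studies were judged inadequate by the national testing program; inactive = no potency or tumor site, with negative rat experiments.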
measurement.label: outcome

{"columns": ["molecule", "measured"],
 "data": [
  ["C1CC2OC2CC1C1CO1 (stereo not given)", "inactive"],
  ["CCCCCCCCCCCCCCCC(=O)CC(=O)CCCCCCCCCCCCCCC", "inactive"]
]}

----------
test system: rat chronic carcinogenicity bioassay, TD50; assay: DSSTox (CPDBAS) Carcinogenic Potency Database Summary Rat Bioassay Results; conditions: TD50_Rat_Note: TD50 is harmonic mean of more than one positive test; TargetSites_Rat_Female: spleen; active compounds read low
measurement.label: Potency

// field: Potency; key: c1ccc(N=Nc2ccccc2)cc1 ; value = 24.1 mg/kg/day

----------
System: rat chronic carcinogenicity bioassay, TD50
Experiment: DSSTox (CPDBAS) Carcinogenic Potency Database Summary Rat Bioassay Results
Details: TD50_Rat_Note: TD50 is harmonic mean of more than one positive test; greater than ten-fold variation among TD50 values for positive res; TargetSites_Rat_Female: ear Zymbals gland; kidney; liver; mammary gland; nasal cavity; nervous system; vascular system; active compounds read low
Source text: The Carcinogenic Potency Database (CPDB) is a unique and widely used international resource of the results of over 6500 chronic, long-term animal cancer tests on over 1500 chemical substances. The CPDB provides easy access to the bioassay literature, with qualitative and quantitative analyses of both positive and negative experiments that have been published over the past 50 years in the general literature and by the National Cancer Institute/National Toxicology Program. […]
measurement.label: Potency

// field: Potency; key: C=CCl ; value = 6.11 mg/kg/day

----------
test system: rat chronic carcinogenicity bioassay, TD50; assay: DSSTox (CPDBAS) Carcinogenic Potency Database Summary Rat Bioassay Results; conditions: TD50_Rat_Note: TD50 value is overestimated as upper 99% confidence limit from study with 100% tumor incidence but no lifetable; harmoni; active compounds read low
What Potency was measured for each of the following?

Hi, could you look up Potency for each item in my list?
1. COc1cc(O)c2c(=O)c3c(OC)cc4c(c3oc2c1OC)C1C=COC1O4 (stereo not drawn)
2. CCN(CC)c1ccc(N=Nc2cc[n+]([O-])cc2)cc1
3. CCSCC[C@H](N)C(=O)O

1: 0.364 mg/kg/day; 2: 1.63 mg/kg/day; 3: 4.97 mg/kg/day

----------
tested on: rat chronic carcinogenicity bioassay, TD50; test: DSSTox (CPDBAS) Carcinogenic Potency Database Summary Rat Bioassay Results; details: TargetSites_Rat_Female: thyroid gland; active compounds read low
measurement.label: Potency

// field: Potency; key: CNC(=S)N(C)C ; value = 25.8 mg/kg/day

----------
What Potency was measured for each of the following?
tested on: rat chronic carcinogenicity bioassay, TD50; assay: DSSTox (CPDBAS) Carcinogenic Potency Database Summary Rat Bioassay Results; details: TD50_Rat_Note: TD50 is harmonic mean of more than one positive test; TargetSites_Rat_BothSexes: hematopoietic system; active compounds read low

{"columns": ["mol", "measured"],
 "data": [
  ["Cc1cc(C)c(S(=O)(=O)O)cc1N=Nc1cc(S(=O)(=O)O)c2ccccc2c1O", "8110 mg/kg/day"]
]}

Then there is this compound:
Observed Potency on rat chronic carcinogenicity bioassay, TD50, entry O=S(=O)(O)c1ccc2c(N=Nc3ccc(S(=O)(=O)O)c4ccccc34)c(O)c(S(=O)(=O)O)cc2c1 , equals 1470 mg/kg/day

----------
system: rat chronic carcinogenicity bioassay, TD50; test: DSSTox (CPDBAS) Carcinogenic Potency Database Summary Rat Bioassay Results; conditions: TD50_Rat_Note: TD50 is harmonic mean of more than one positive test; TargetSites_Rat_Female: hematopoietic system; mammary gland; nervous system; small intestine; active compounds read low
measurement.label: Potency

Observed Potency on rat chronic carcinogenicity bioassay, TD50, entry O=S1(=O)CCCO1 , equals 3.84 mg/kg/day

----------
system: rat chronic carcinogenicity bioassay, TD50; assay: DSSTox (CPDBAS) Carcinogenic Potency Database Summary Rat Bioassay Results; conditions: TargetSites_Rat_Female: no positive results; active compounds read low
measurement.label: Potency

Guide cases for Potency, answers given:
{"columns": ["compound", "experimental.system", "Potency"],
 "data": [
  ["C=CCN=C=S", "rat chronic carcinogenicity bioassay, TD50", "96 mg/kg/day"],
  ["OCCOCCO", "rat chronic carcinogenicity bioassay, TD50", "1660 mg/kg/day"],
  ["C=C(C)C", "rat chronic carcinogenicity bioassay, TD50", "3550 mg/kg/day"],
  ["Nc1ccc2c(c1)C(=O)c1ccccc1C2=O", "rat chronic carcinogenicity bioassay, TD50", "101 mg/kg/day"],
  ["CC(O)c1ccccc1 (stereo not given)", "rat chronic carcinogenicity bioassay, TD50", "458 mg/kg/day"],
  ["C=CCOC(=O)CC(C)C", "rat chronic carcinogenicity bioassay, TD50", "123 mg/kg/day"],
  ["Nc1cc([N+](=O)[O-])ccc1O", "rat chronic carcinogenicity bioassay, TD50", "839 mg/kg/day"],
  ["Nc1nc(N)nc(N)n1", "rat chronic carcinogenicity bioassay, TD50", "735 mg/kg/day"],
  ["ClCc1cccnc1", "rat chronic carcinogenicity bioassay, TD50", "433 mg/kg/day"],
  ["Nc1ccc(S(=O)(=O)c2ccc(N)cc2)cc1", "rat chronic carcinogenicity bioassay, TD50", "22.4 mg/kg/day"]
]}

Hi, could you look up Potency for each item in my list?
1. COC(=O)[C@H]1[C@H]2C[C@@H]3c4[nH]c5cc(OC)ccc5c4CCN3C[C@H]2C[C@@H](OC(=O)c2cc(OC)c(OC)c(OC)c2)[C@@H]1OC
2. Nc1cc(S(=O)(=O)[O-])cc2cc(S(=O)(=O)[O-])c(N=Nc3ccc(-c4ccc(N=Nc5c(S(=O)(=O)[O-])cc6cc(S(=O)(=O)[O-])cc(N)c6c5O)c(O)c4)cc3O)c(O)c12.[Cu].[Cu].[Na+].[Na+].[Na+].[Na+]
3. COP(=O)(OC)OC=C(Cl)Cl
4. CCOP(=O)=O.CCOP(=O)=O.CCOP(=O)=O.[Al+3]
5. CCC1CO1 (stereo not given)
6. CC1=CC(=O)CC(C)(C)C1
7. O=C1CCc2ccccc2O1
8. CC/C(C)=N/O

0.306 mg/kg/day
1570 mg/kg/day
4.16 mg/kg/day
3660 mg/kg/day
220 mg/kg/day
1210 mg/kg/day
2970 mg/kg/day
74.5 mg/kg/day

Hi, could you look up Potency for each item in my list?
1. CC(C)=NO
2. CN(C)c1ccccc1

12.1 mg/kg/day
125 mg/kg/day

Hi, could you look up Potency for each item in my list?
1. NCCCCCCCCCCC(=O)O
2. Clc1ccccc1
3. O=C1CN(/N=C/c2ccc([N+](=O)[O-])o2)C(=O)N1
4. CC(F)(Cl)Cl

["1100 mg/kg/day", "247 mg/kg/day", "163 mg/kg/day", "5260 mg/kg/day"]

----------
System: rat chronic carcinogenicity bioassay, TD50
Assay: DSSTox (CPDBAS) Carcinogenic Potency Database Summary Rat Bioassay Results
Details: TargetSites_Rat_Female: stomach; active compounds read low
Excerpt: The Carcinogenic Potency Database (CPDB) is a unique and widely used international resource of the results of over 6500 chronic, long-term animal cancer tests on over 1500 chemical substances. The CPDB provides easy access to the bioassay literature, with qualitative and quantitative analyses of both positive and negative experiments that have been published over the past 50 years in the general literature and by the National Cancer Institute/National Toxicology Program. […]
What Potency was measured for each of the following?

Guide cases for Potency, answers given:
{"columns": ["compound", "measured"],
 "data": [
  ["CN(C#N)N=O", "0.48 mg/kg/day"],
  ["CC1CN(N=O)CC(C)N1C(=O)c1ccccc1 (centres undefined)", "9.66 mg/kg/day"],
  ["CC(C)=NNc1ncc(-c2ccc([N+](=O)[O-])o2)s1", "6.05 mg/kg/day"]
]}

Then there is this compound:
// field: Potency; key: CC1CC(=O)O1 (centres undefined) ; value = 13.8 mg/kg/day

----------
system: rat chronic carcinogenicity bioassay, TD50; test: DSSTox (CPDBAS) Carcinogenic Potency Database Summary Rat Bioassay Results; details: TD50_Rat_Note: harmonic mean of TD50 includes a value for upper 99% confidence limit from study with 100% tumor incidence but no lifeta; TargetSites_Rat_Female: kidney; mammary gland; small intestine; stomach; vascular system; active compounds read low
measurement.label: Potency

// field: Potency; key: Cc1cc(C)nc(-c2ccc([N+](=O)[O-])o2)n1 ; value = 1.39 mg/kg/day

----------
tested on: rat chronic carcinogenicity bioassay, TD50; assay: DSSTox (CPDBAS) Carcinogenic Potency Database Summary Rat Bioassay Results; conditions: TargetSites_Rat_Female: hematopoietic system; kidney; lung; small intestine; stomach; vascular system; active compounds read low
measurement.label: Potency

// field: Potency; key: CC(=O)Nc1nnc(-c2ccc([N+](=O)[O-])o2)s1 ; value = 8.84 mg/kg/day
